Target: ATP-dependent translocase ABCB1 (Homo sapiens)
Sequence (P08183 whole entry): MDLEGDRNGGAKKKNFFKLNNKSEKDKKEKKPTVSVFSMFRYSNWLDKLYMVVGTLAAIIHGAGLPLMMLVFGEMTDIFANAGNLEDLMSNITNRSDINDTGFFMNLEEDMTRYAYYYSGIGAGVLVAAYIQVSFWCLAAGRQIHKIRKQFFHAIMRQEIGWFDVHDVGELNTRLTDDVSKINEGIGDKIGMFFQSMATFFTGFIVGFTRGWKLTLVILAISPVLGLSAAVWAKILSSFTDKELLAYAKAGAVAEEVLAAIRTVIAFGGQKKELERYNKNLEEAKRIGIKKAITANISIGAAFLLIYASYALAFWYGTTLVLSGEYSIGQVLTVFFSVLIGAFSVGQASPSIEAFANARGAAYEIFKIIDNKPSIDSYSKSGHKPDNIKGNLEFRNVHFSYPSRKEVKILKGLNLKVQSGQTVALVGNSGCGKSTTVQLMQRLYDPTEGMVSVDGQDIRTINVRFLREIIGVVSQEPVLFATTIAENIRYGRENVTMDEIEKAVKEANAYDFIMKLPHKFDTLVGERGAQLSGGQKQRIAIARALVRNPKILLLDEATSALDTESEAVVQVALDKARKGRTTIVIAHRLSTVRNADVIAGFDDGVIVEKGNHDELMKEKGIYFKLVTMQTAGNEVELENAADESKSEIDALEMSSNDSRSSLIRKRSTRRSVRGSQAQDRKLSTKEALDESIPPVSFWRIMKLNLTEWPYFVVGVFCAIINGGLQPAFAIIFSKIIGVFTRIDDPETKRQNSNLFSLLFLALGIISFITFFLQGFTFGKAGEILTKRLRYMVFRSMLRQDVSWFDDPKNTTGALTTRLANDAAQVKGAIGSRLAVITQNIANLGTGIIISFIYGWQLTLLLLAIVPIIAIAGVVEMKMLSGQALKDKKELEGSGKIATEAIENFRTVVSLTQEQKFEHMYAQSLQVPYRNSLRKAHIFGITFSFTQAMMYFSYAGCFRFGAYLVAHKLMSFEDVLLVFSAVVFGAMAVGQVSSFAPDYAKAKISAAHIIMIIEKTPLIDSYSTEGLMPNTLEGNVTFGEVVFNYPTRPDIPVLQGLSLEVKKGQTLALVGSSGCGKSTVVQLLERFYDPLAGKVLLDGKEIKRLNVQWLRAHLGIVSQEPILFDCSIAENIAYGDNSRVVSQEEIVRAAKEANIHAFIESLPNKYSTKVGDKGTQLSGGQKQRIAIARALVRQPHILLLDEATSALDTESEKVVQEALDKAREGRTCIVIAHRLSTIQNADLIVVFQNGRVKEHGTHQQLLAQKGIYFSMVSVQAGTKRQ
Test: TP_TRANSPORTER: inhibition of Digoxin transepithelial transport (basal to apical) (Digoxin: 5 uM) in Caco-2 cells
Format: functional, cell-based
pIC50: −log10 of the molar value.
EXPERIMENTAL READOUT: pIC50

>>> obs_value("O=C(/C=C/C=C/c1ccc2c(c1)OCO2)N1CCCCC1 [PIPERINE]")
4.81

----------
Molecular target: ATP-dependent translocase ABCB1 (Homo sapiens)
Assay: TP_TRANSPORTER: inhibition of Cyclosporin A transepithelial transport (basal to apical) (Cyclosporin A: 1 uM) in Caco-2 cells
Assay type: functional, cell-based
pIC50: −log10 of the molar value.
EXPERIMENTAL READOUT: pIC50

>>> obs_value("O=C(/C=C/C=C/c1ccc2c(c1)OCO2)N1CCCCC1")
4.13

meta.source: ChEMBL document CHEMBL2073998
